Test: Stability in mouse hepatic microsomes
Conditions: mouse, microsomes, Half-life n=1, mouse hepatic microsomes, 1 µM
reported.endpoint: half-life at 1 µM (min)
Entry rule: numbers only, all in min.

Task: Retrieve half-life at 1 µM measured for COc1ccc2c(c1)[C@]13CCCC[C@@H]1[C@H](C2)N(C)CC3 [Dextromethorphan, reference compound] and print it.
Result: 28

###

Target: PfKMO (Pseudomonas fluorescens, UniProt Q84HF5, C252S/C461S)
Construct: made in house; host or cells: E. coli BL21 (DE3)
Sequence (Q84HF5 whole entry C252S/C461S): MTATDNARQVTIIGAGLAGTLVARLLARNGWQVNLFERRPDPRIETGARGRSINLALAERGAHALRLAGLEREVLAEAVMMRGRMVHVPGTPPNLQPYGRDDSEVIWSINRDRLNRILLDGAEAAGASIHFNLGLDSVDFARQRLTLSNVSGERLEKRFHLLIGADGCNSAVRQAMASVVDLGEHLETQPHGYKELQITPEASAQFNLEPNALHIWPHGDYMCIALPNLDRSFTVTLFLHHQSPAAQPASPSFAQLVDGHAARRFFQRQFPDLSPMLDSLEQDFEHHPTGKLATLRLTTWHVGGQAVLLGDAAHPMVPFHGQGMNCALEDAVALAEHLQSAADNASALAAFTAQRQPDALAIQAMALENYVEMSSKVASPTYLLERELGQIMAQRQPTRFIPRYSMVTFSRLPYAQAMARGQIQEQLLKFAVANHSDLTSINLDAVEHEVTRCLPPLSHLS
Experiment: biochemical
Conditions: PfKMO
reported.endpoint: Mechanism of inhibition with respect to NADPH

Task: Retrieve Mechanism of inhibition with respect to NADPH measured for `Cn1c(C(=O)N[C@@H](C(=O)O)c2ccccc2)cc2cc(Cl)ccc21` and print it.
Result: mixed type inhibitors

Task: Retrieve Mechanism of inhibition with respect to NADPH measured for `Cc1cc2c(c(C)c1Cl)N(CC(=O)O)C(=O)CO2` and print it.
Result: mixed type inhibitors

Task: Retrieve Mechanism of inhibition with respect to NADPH measured for `O=C(O)c1ccc(-c2ccc(Cl)c(Cl)c2)o1` and print it.
Result: mixed type inhibitors

###

Test: in vitro
Assay type: in vitro ADME, canine
Conditions: dog, MDCK, pH 7.4, wild type MDCK; read-out: Papp B>A Mean
reported.endpoint: Papp B→A at 1 h, 10 µM (nm/s)
Entry rule: numbers only, all in nm/s.

Task: Retrieve Papp B→A at 1 h, 10 µM measured for CC(C)NCC(O)COc1cccc2ccccc12 (stereo not drawn) [Propranolol, reference compound] and print it.
Result: 305

Task: Retrieve Papp B→A at 1 h, 10 µM measured for CC(CSc1ccc(Cl)cc1)C(=O)O (stereo not drawn) and print it.
Result: 505

Task: Retrieve Papp B→A at 1 h, 10 µM measured for CC[C@]1(O)C[C@@H]2CN(CCc3c([nH]c4ccccc34)[C@@](C(=O)OC)(c3cc4c(cc3OC)N(C)[C@H]3[C@@](O)(C(=O)OC)[C@H](OC(C)=O)[C@]5(CC)C=CCN6CC[C@]43[C@@H]65)C2)C1 [Vinblastine, reference compound] and print it.
Result: 37.5

Task: Retrieve Papp B→A at 1 h, 10 µM measured for `Cn1c(C(=O)N[C@@H](C(=O)O)c2ccccc2)cc2cc(F)ccc21` and print it.
Result: 15

Task: Retrieve Papp B→A at 1 h, 10 µM measured for `Oc1ccc(-c2csc3nc(-c4ccccc4)nn23)c(O)c1` and print it.
Result: 29.5

Lab note: next compound to report on.
Task: Retrieve Papp B→A at 1 h, 10 µM measured for `Cc1cc2c(c(C)c1Cl)N(CC(=O)O)C(=O)CO2` and print it.
Result: 24.5

###

Assay: Rat brain penetration study
Format: in vivo, male Han Wistar rats
Settings: male, Han Wistar, brain, intravenous, 5 mg free base/kg, 1b 5 mg/kg i.v., 5 min, single rats, read-out: In brain, prodrug 1b
reported.endpoint: concentration at 5 min (ng/g)
Entry rule: numbers only, all in ng/g.

Task: Retrieve concentration at 5 min measured for CCOC(=O)CN1C(=O)COc2cc(C)c(Cl)c(C)c21 [1b] and print it.
Result: 2350

###

System: MDR1 (P-glycoprotein)
Test: in vitro
Format: in vitro ADME, canine
Conditions: dog, MDCK-MDR1, pH 7.4, MDR1 MDCK; read-out: Papp B>A Mean
Papp B→A at 1 h, 10 µM less than 5 ×10⁻⁶ cm/s is True; Papp B→A at 1 h, 10 µM greater than or equal to 5 ×10⁻⁶ cm/s is False.

As a guide, the following entries are already answered.
Task: Dear colleague, could you confirm whether Papp B→A at 1 h, 10 µM of CC(C)NCC(O)COc1cccc2ccccc12 (stereo not drawn) [Propranolol, reference compound] falls below 5 ×10⁻⁶ cm/s? Thanks.
Result: False

Task: Dear colleague, could you confirm whether Papp B→A at 1 h, 10 µM of CC[C@]1(O)C[C@@H]2CN(CCc3c([nH]c4ccccc34)[C@@](C(=O)OC)(c3cc4c(cc3OC)N(C)[C@H]3[C@@](O)(C(=O)OC)[C@H](OC(C)=O)[C@]5(CC)C=CCN6CC[C@]43[C@@H]65)C2)C1 [Vinblastine, reference compound] falls below 5 ×10⁻⁶ cm/s? Thanks.
Result: False

Task: Dear colleague, could you confirm whether Papp B→A at 1 h, 10 µM of CC(CSc1ccc(Cl)cc1)C(=O)O (stereo not drawn) falls below 5 ×10⁻⁶ cm/s? Thanks.
Result: False

More entries:
Task: Dear colleague, could you confirm whether Papp B→A at 1 h, 10 µM of `Cn1c(C(=O)N[C@@H](C(=O)O)c2ccccc2)cc2cc(F)ccc21` falls below 5 ×10⁻⁶ cm/s? Thanks.
Result: True

Task: Dear colleague, could you confirm whether Papp B→A at 1 h, 10 µM of `Cc1cc2c(c(C)c1Cl)N(CC(=O)O)C(=O)CO2` falls below 5 ×10⁻⁶ cm/s? Thanks.
Result: True

###

System: MDR1 (P-glycoprotein)
Experiment: in vitro
Format: in vitro ADME, canine
Details: dog, MDCK-MDR1, pH 7.4, MDR1 MDCK; read-out: Recovery B>A Mean
recovery at 1 h, 10 µM less than 80% is class 1; recovery at 1 h, 10 µM greater than or equal to 80% is class 0.

As a guide, the following entries are already answered.
Task: Dear colleague, could you confirm whether recovery at 1 h, 10 µM of `Oc1ccc(-c2csc3nc(-c4ccccc4)nn23)c(O)c1` falls below 80%? Thanks.
Result: class 1

Task: Dear colleague, could you confirm whether recovery at 1 h, 10 µM of CC[C@]1(O)C[C@@H]2CN(CCc3c([nH]c4ccccc34)[C@@](C(=O)OC)(c3cc4c(cc3OC)N(C)[C@H]3[C@@](O)(C(=O)OC)[C@H](OC(C)=O)[C@]5(CC)C=CCN6CC[C@]43[C@@H]65)C2)C1 [Vinblastine, reference compound] falls below 80%? Thanks.
Result: class 1

Now look at this entry.
Task: Dear colleague, could you confirm whether recovery at 1 h, 10 µM of `Cc1cc2c(c(C)c1Cl)N(CC(=O)O)C(=O)CO2` falls below 80%? Thanks.
Result: class 0

###

Test: in vitro
Format: in vitro ADME, canine
Conditions: dog, MDCK, pH 7.4, wild type MDCK; read-out: Recovery B>A n=2
reported.endpoint: recovery at 1 h, 10 µM

Task: Retrieve recovery at 1 h, 10 µM measured for `Cn1c(C(=O)N[C@@H](C(=O)O)c2ccccc2)cc2cc(F)ccc21` and print it.
Result: 81%

Task: Retrieve recovery at 1 h, 10 µM measured for CC(C)NCC(O)COc1cccc2ccccc12 (stereo not drawn) [Propranolol, reference compound] and print it.
Result: 84%

Task: Retrieve recovery at 1 h, 10 µM measured for CC(CSc1ccc(Cl)cc1)C(=O)O (stereo not drawn) and print it.
Result: 89%

Task: Retrieve recovery at 1 h, 10 µM measured for `Cc1cc2c(c(C)c1Cl)N(CC(=O)O)C(=O)CO2` and print it.
Result: 109%

Task: Retrieve recovery at 1 h, 10 µM measured for CC[C@]1(O)C[C@@H]2CN(CCc3c([nH]c4ccccc34)[C@@](C(=O)OC)(c3cc4c(cc3OC)N(C)[C@H]3[C@@](O)(C(=O)OC)[C@H](OC(C)=O)[C@]5(CC)C=CCN6CC[C@]43[C@@H]65)C2)C1 [Vinblastine, reference compound] and print it.
Result: 74%

More entries:
Task: Retrieve recovery at 1 h, 10 µM measured for `Oc1ccc(-c2csc3nc(-c4ccccc4)nn23)c(O)c1` and print it.
Result: 48%

###

Assay: Rat brain penetration study
Assay type: in vivo, male Han Wistar rats
Settings: male, Han Wistar, brain, iv, 1b 5 mg/kg i.v., read-out: Time of maximal concentration of 1b in the brain (converted)
reported.endpoint: Tmax (min)
Entry rule: numbers only, all in min.

Task: Retrieve Tmax measured for `CCOC(=O)CN1C(=O)COc2cc(C)c(Cl)c(C)c21` and print it.
Result: 5

###

Listed here: items and their measured Papp A→B at 1 h, 10 µM.
Test: in vitro
Type: in vitro ADME, canine
Settings: dog, MDCK, pH 7.4, Papp A>B n=1, wild type MDCK
Entry rule: numbers only, all in ×10⁻⁶ cm/s.

Task: Retrieve Papp A→B at 1 h, 10 µM measured for `Oc1ccc(-c2csc3nc(-c4ccccc4)nn23)c(O)c1` and print it.
Result: 2.7

More entries:
Task: Retrieve Papp A→B at 1 h, 10 µM measured for CC(CSc1ccc(Cl)cc1)C(=O)O (stereo not drawn) and print it.
Result: 33

Task: Retrieve Papp A→B at 1 h, 10 µM measured for `Cn1c(C(=O)N[C@@H](C(=O)O)c2ccccc2)cc2cc(F)ccc21` and print it.
Result: 2.6

Task: Retrieve Papp A→B at 1 h, 10 µM measured for CC(C)NCC(O)COc1cccc2ccccc12 (stereo not drawn) [Propranolol, reference compound] and print it.
Result: 52

Task: Retrieve Papp A→B at 1 h, 10 µM measured for `Cc1cc2c(c(C)c1Cl)N(CC(=O)O)C(=O)CO2` and print it.
Result: 16
